Just for reference, patent US20240002495A1 is where these values come from.

# experimental-target: T1, biotinylated 6His tag-AviTag-linked mature human IL-33 (residues 112 to 270) (human, UniProt O95760 112-270, biotin on the AviTag portion (BirA))
# T1 construct: made in E. coli; also called biotinylated human IL-33 protein
# T1 sequence: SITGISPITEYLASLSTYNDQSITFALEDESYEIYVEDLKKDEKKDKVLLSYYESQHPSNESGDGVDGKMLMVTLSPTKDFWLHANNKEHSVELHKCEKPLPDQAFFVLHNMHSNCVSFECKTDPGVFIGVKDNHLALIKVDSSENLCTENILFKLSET
# procedure-details: SPR, IL-33 on chip, Fab supernatant as analyte
measurement-type: Human IL-33 Binding Amount (RU)
Report the value in RU with no unit label.

Sample records with Human IL-33 Binding Amount (RU):
>  <binder>
A27-1C06 (Fab) (Fab, V domains shown, Fab secreted by E. coli, tested as culture supernatant; also called V22) VH: EVQLLESGGGLVQPGGSLRLSCAASGFTFSNYYMHWVRQAPGKGLEWVSSISARSSYIYYADSVKGRFTISRDNSKNTLYLQMNSLRAEDTAVYYCARLATRHSAFDIWGQGTLVTVSS VL: QSVLTQPPSASGTPGQRVTISCSGSSSNIGNNAVNWYQQLPGTAPKLLIYASNMRRLGVPDRFSGSKSGTSASLAISGLRSEDEADYYCGAWDDSQKAFVFGGGTKLTVL

>  <Human IL-33 Binding Amount (RU)>
294

$$$$
>  <binder>
A28-1C08 (Fab) (Fab, V domains shown, Fab secreted by E. coli, tested as culture supernatant; also called V23) VH: EVQLLESGGGLVQPGGSLRLSCAASGFTFSRYYMHWVRQAPGKGLEWVSSISARSSYIYYADSVKGRFTISRDNSKNTLYLQMNSLRAEDTAVYYCARLATRRDAFDIWGQGTLVTVSS VL: QSVLTQPPSASGTPGQRVTISCSGSSSNIGRNAVSWYQQLPGTAPKLLIYASNMRRLGVPDRFSGSKSGTSASLAISGLRSEDEADYYCWAWDDSQKAVVFGGGTKLTVL

>  <Human IL-33 Binding Amount (RU)>
156

$$$$

Query: Which Human IL-33 Binding Amount (RU) is reported for this binder? A23-1A05 (Fab) (Fab, V domains shown, Fab secreted by E. coli, tested as culture supernatant; also called V8) VH: EVQLLESGGGLVQPGGSLRLSCAASGFTFSNYYMHWVRQAPGKGLEWVSSISARSRYHYYADSVKGRFTISRDNSKNTLYLQMNSLRAEDTAVYYCARLATRHNAFDIWGQGTLVTVSS VL: QSVLTQPPSASGTPGQRVTISCSGSSSNIGNNAVSWYQQLPGTAPKLLIYASNMRVIGVPDRFSGSKSGTSASLAISGLRSEDEADYYCGAWDDSQKALVFGGGTKLTVL
Response: 52

Query: Now consider A12-1H08 (Fab) (Fab, V domains shown, Fab secreted by E. coli, tested as culture supernatant; also called V4) VH: EVQLLESGGGLVQPGGSLRLSCAASGFTFSDYYMDWVRQAPGKGLEWVSSISRASSYVYYADSVKGRFTISRDNSKNTLYLQMNSLRAEDTAVYYCARDIGGMDVWGQGTLVTVSS VL: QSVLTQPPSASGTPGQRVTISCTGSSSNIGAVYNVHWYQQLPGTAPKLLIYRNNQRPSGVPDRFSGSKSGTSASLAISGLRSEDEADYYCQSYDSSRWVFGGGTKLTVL and answer again.
Response: 77
